Measured values drawn from ChEMBL document CHEMBL2311374 for this set.

test system: HMEC-1; experiment: Inhibition of HMEC1 cells growth measured after 48 hrs by MTT assay; type: functional, cell-based; conditions: Homo sapiens, HMEC-1, 48 h
pIC50: −log10 of the molar value.
REPORTED ENDPOINT: pIC50

>>> print(df.to_string())
                                smiles_repr  test_value
0  C=C1C(=O)O[C@H]2C[C@@H](C)[C@@H]3C=CC(=O)[C@@]3(C)[C@@H](OC(C)=O)[C@H]12        5.57
